measurement-notes: Phase solubility studies with HP-β-CD in KRB buffer
Assay type: physicochemical
experimental-context: KRB buffer, 37 °C, pH 7.4, aqueous buffer, thermodynamic from solid, marker in EBGT plant extract (9.0 mg/mL); KRB pH 7.4, 37 °C; absence of HP-β-CD; read-out: intrinsic solubility (S0) in EBGT
measurement-name: solubility at 7 d (µM)
Give the number; µM is assumed, so skip it.

Query block: Quick check: solubility at 7 d of COc1c2ccoc2cc2oc(=O)ccc12 ?
Result block: 38

* * *

measurement-notes: Ex vivo rat jejunal permeability (MTS-Snapwell system, A–B)
Assay type: in vitro ADME
experimental-context: female, Wistar, pH 7.4, pure compound, KRB, without stirring (0 rpm)
The compounds listed here are annotated with their Papp at 120 min.
Give the number; ×10⁻⁶ cm/s is assumed, so skip it.

record-smiles	reported-result
COc1c2ccoc2cc2oc(=O)ccc12	7.8

Now look at this one.
Query block: Quick check: Papp at 120 min of O=c1ccc2cc3ccoc3cc2o1 ?
Result block: 20.5

* * *

measurement-notes: Preliminary in vivo studies in rats (plasma AUC)
experimental-context: rat, EBGT uncomplexed, dose 1.5 g/kg, n = 3
measurement-name: AUC (ng·h/mL)
Give the number; ng·h/mL is assumed, so skip it.

Query block: Quick check: AUC of COc1c2ccoc2cc2oc(=O)ccc12 [5-MOP, 5-methoxypsoralen] ?
Result block: 516

* * *

measurement-notes: Ex vivo rat jejunal permeability (MTS-Snapwell system, A–B)
Assay type: in vitro ADME
experimental-context: female, Wistar, rat, pH 7.4, pure compound; HP-β-CD 70 mM
measurement-name: Papp at 120 min (×10⁻⁶ cm/s)
Give the number; ×10⁻⁶ cm/s is assumed, so skip it.

record-smiles	u	Papp at 120 min
O=c1ccc2cc3ccoc3cc2o1	×10⁻⁶ cm/s	3.82

Now look at this one.
Query block: Quick check: Papp at 120 min of COc1c2ccoc2cc2oc(=O)ccc12 ?
Result block: 2.05

* * *

measurement-notes: Ex vivo rat jejunal permeability (MTS-Snapwell system, A–B)
Format: in vitro ADME
experimental-context: female, Wistar, rat, pH 7.4, marker in EBGT plant extract; KRB solution without HP-β-CD
The molecules listed here are annotated with their Papp at 120 min.

molecule	Papp at 120 min
COc1c2ccoc2cc2oc(=O)ccc12 [5-MOP, 5-methoxypsoralen]	10.7 ×10⁻⁶ cm/s

Query block: Quick check: Papp at 120 min of O=c1ccc2cc3ccoc3cc2o1 [PSO, Psoralen] ?
Result block: 17.6 ×10⁻⁶ cm/s

* * *

measurement-notes: Phase solubility studies with HP-β-CD in KRB buffer
Format: physicochemical
experimental-context: KRB buffer, 37 °C, pH 7.4, aqueous with cosolvent or surfactant or cyclodextrin, thermodynamic from solid, aqueous solubility with 70 mM HP-β-CD, pure compound; 70 mM HP-β-CD; KRB pH 7.4, 37 °C
measurement-name: solubility at 7 d (µM)
Give the number; µM is assumed, so skip it.

Query block: Quick check: solubility at 7 d of COc1c2ccoc2cc2oc(=O)ccc12 [5-MOP, 5-methoxypsoralen] ?
Result block: 930

* * *

measurement-notes: Ex vivo rat jejunal permeability (MTS-Snapwell system, A–B)
Assay type: in vitro ADME
experimental-context: female, Wistar, rat, pH 7.4, pure compound; KRB solution without HP-β-CD; stirring 60 rpm; 120 min
measurement-name: Papp at 120 min (×10⁻⁶ cm/s)
Give the number; ×10⁻⁶ cm/s is assumed, so skip it.

record-smiles	u	Papp at 120 min
COc1c2ccoc2cc2oc(=O)ccc12	×10⁻⁶ cm/s	11.2

Now look at this one.
Query block: Quick check: Papp at 120 min of O=c1ccc2cc3ccoc3cc2o1 ?
Result block: 21.4
